The reported measurements were obtained from paper PMC4336329.

- Study system: human ether-à-go-go-related gene (hERG) potassium channel (human)
- Assay text: primary screen, population patch clamp on CHO cells stably expressing hERG; higher = less effect of the substance
Out of some 310,000 compounds screened, about 14,000 (4.5%) showed an effect of 50% or more. The effect is printed as a negative number. What follows is part of a selection rich in strong results, with near analogues and random picks from the rest.
hERG current change (%, negative = inhibition) at 10uM overview
// return numeric value only (unit: %, not printed)

>  <Record smiles>
O=C(CSc1nc2ccccc2s1)Nc1ncccn1

>  <Study system>
human ether-à-go-go-related gene (hERG) potassium channel (human)

>  <Value reported>
13.4

$$$$

Supply hERG current change (%, negative = inhibition) at 10uM value. Item: N#Cc1c(-c2ccc(Cl)cc2)ccnc1N1CCOCC1
3.33

Supply hERG current change (%, negative = inhibition) at 10uM value. Item: CC#CCC(CC#CC)c1nc2ccccc2c(=O)n1N
-1.36

Supply hERG current change (%, negative = inhibition) at 10uM value. Item: COc1cc(OC)cc(C(=O)O/N=C(\N)c2ccccn2)c1
7.21

Supply hERG current change (%, negative = inhibition) at 10uM value. Item: Cc1ccc(C(=O)OCC(=O)Nc2ccc(F)c(Cl)c2)o1
17

Supply hERG current change (%, negative = inhibition) at 10uM value. Item: O=C(CSc1nnc(NC(=O)c2ccco2)s1)NC1CCCC1
18.6

====

- Study system: human ether-à-go-go-related gene (hERG) potassium channel (human, UniProt Q12809)
- Sequence (Q12809 whole entry, looked up): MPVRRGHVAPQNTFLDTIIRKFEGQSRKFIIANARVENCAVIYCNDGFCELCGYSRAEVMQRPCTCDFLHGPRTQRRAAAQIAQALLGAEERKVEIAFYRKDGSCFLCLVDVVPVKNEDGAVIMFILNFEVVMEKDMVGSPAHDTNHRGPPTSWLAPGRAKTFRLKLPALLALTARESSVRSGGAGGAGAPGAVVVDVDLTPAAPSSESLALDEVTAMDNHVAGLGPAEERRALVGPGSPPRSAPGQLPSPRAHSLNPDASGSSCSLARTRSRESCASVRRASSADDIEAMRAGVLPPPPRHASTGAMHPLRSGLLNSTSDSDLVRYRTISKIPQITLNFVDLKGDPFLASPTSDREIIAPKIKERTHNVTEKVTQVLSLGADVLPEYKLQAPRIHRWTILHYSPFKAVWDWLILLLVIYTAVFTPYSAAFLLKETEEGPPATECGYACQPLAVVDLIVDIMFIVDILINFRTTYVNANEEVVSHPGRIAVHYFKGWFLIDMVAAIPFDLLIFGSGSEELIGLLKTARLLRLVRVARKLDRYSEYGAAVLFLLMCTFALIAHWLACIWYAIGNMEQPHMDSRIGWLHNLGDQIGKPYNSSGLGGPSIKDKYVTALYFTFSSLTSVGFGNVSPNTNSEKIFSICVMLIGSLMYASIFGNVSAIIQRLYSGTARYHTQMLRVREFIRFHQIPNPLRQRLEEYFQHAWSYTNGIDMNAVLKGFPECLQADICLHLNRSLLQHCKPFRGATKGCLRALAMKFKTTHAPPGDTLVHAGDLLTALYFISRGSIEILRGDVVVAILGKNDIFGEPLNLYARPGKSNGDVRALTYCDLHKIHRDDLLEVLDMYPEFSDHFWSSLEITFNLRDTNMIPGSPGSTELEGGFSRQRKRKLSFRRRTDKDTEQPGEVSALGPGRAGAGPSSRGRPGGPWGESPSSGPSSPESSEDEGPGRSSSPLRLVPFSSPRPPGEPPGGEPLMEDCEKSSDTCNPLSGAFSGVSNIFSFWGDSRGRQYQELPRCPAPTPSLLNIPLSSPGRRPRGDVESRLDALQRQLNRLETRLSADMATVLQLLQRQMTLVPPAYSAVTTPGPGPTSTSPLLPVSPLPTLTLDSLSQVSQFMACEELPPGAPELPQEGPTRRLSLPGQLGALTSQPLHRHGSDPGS
- Assay text: primary screen, population patch clamp on CHO cells stably expressing hERG; higher = less effect of the substance
Out of some 310,000 compounds screened, about 14,000 (4.5%) showed an effect of 50% or more. The effect is printed as a negative number. The sample as a whole holds a higher share of strong results than the screen did.
hERG current change (%, negative = inhibition) at 10uM overview
// return numeric value only (unit: %, not printed)

Use the examples below as a reference point.
>  <Compound>
Cl.c1ccc(CCNCc2ccccc2)cc1

>  <Units of measure>
%

>  <Value reported>
-9.4

$$$$
>  <Compound>
O=C(CNC(=S)N(CCCN1CCOCC1)Cc1cccs1)N1CCCCCC1

>  <Units of measure>
%

>  <Value reported>
-41.4

$$$$
>  <Compound>
Cc1ccccc1CCNCc1ccc(Br)cc1

>  <Units of measure>
%

>  <Value reported>
-53.6

$$$$
>  <Compound>
Cc1ccccc1SCC(=O)OCC(=O)Nc1ccc(N(C)C)cc1

>  <Units of measure>
%

>  <Value reported>
10.4

$$$$
>  <Compound>
Clc1nc(NCc2ccco2)nc(N2CCCCC2)n1

>  <Units of measure>
%

>  <Value reported>
33.5

$$$$

Supply hERG current change (%, negative = inhibition) at 10uM value. Item: CN(C)C1(CNC(=O)C2CCN(S(=O)(=O)c3cc(Cl)ccc3Cl)CC2)CCCCC1
-64.1

Supply hERG current change (%, negative = inhibition) at 10uM value. Item: CCn1nc(C)cc1C(=O)N1CCCC(C(=O)c2ccc(OC)cc2C)C1 (stereo not shown)
3.32

Supply hERG current change (%, negative = inhibition) at 10uM value. Item: O=C(COC(=O)Cn1nc(-c2ccccc2)oc1=O)Nc1ccc(F)cc1
4.6

Supply hERG current change (%, negative = inhibition) at 10uM value. Item: NC(=O)Cn1cc(C(=O)C(=O)N2CCOCC2)c2ccccc21
1.6

Supply hERG current change (%, negative = inhibition) at 10uM value. Item: O=C(Cc1ccc(Br)cc1)NCCc1ccc(F)cc1
11.3

Supply hERG current change (%, negative = inhibition) at 10uM value. Item: COc1ccc(NC(C)=O)cc1C#N
19.3

====

- Study system: human ether-à-go-go-related gene (hERG) potassium channel (human)
- Assay text: primary screen, population patch clamp on CHO cells stably expressing hERG; higher = less effect of the substance
Hit rate of the full screen: of about 310,000 compounds, about 14,000 (4.5%) showed an effect of 50% or more. The effect is printed as a negative number. The list comes from a sample in which strong results are over-represented; it also holds close analogues and randomly drawn compounds.
Recorded endpoint: hERG current change (%, negative = inhibition) at 10uM (%)
// return numeric value only (unit: %, not printed)

Use the examples below as a reference point.
>  <Compound>
CC(NC(=O)c1ccc([N+](=O)[O-])cc1[N+](=O)[O-])c1ccc(-c2ccccc2)cc1 (stereo not shown)

>  <Value reported>
-1.64

$$$$
>  <Compound>
NNC(=O)c1ccc(Oc2cc(Cl)cc(Cl)c2)o1

>  <Value reported>
1.1

$$$$
>  <Compound>
Cc1cc(C)c(C(=O)O)c(Cl)n1

>  <Value reported>
5.94

$$$$
>  <Compound>
CCNC(=S)N1CCN(CC(=O)Nc2ccc(Br)cc2)CC1

>  <Value reported>
-61.4

$$$$
>  <Compound>
O=C(Nc1ccc(F)cc1)N1CCN(C(=O)C2CCCO2)CC1 (stereo not shown)

>  <Value reported>
2.96

$$$$

Now look at this entry.
Supply hERG current change (%, negative = inhibition) at 10uM value. Item: O=C(CNC(=O)c1ccccc1)NCc1nc2ccccc2[nH]1
3.76

====

hERG current change (%, negative = inhibition) at 10uM overview
- Study system: human ether-à-go-go-related gene (hERG) potassium channel (human)
- Assay text: primary screen, population patch clamp on CHO cells stably expressing hERG; higher = less effect of the substance
Hit rate of the full screen: of about 310,000 compounds, about 14,000 (4.5%) showed an effect of 50% or more. The effect is printed as a negative number. This is one part of a sample in which strong results are shown more often than they occur.
// return numeric value only (unit: %, not printed)

Supply hERG current change (%, negative = inhibition) at 10uM value. Item: COc1ccc(OC)c(-n2c(CN3CCC(C(N)=O)CC3)nc3ccccc3c2=O)c1
-0.126

Supply hERG current change (%, negative = inhibition) at 10uM value. Item: S=C(NCc1ccc(Cl)cc1)NC1CCN(Cc2ccccc2)CC1
-41.8

Supply hERG current change (%, negative = inhibition) at 10uM value. Item: Fc1ccc(CNC2CCN(Cc3ccccc3)CC2)cc1
-65.3

Supply hERG current change (%, negative = inhibition) at 10uM value. Item: COc1ccc(CNC2CCN(Cc3ccccc3)CC2)cc1
-54.2

Supply hERG current change (%, negative = inhibition) at 10uM value. Item: CC(C)Cc1nc2oc3c(NCC(C)O)ncnc3c2c2c1CCCC2 (centres unmarked)
-7.54

Supply hERG current change (%, negative = inhibition) at 10uM value. Item: COc1ccc(CCNC(=S)NC2CCN(Cc3ccccc3)CC2)cc1
-36.9

Supply hERG current change (%, negative = inhibition) at 10uM value. Item: COc1ccc(-n2c(CN3CCOCC3)nc3ccccc3c2=O)c(OC)c1
22.9

Supply hERG current change (%, negative = inhibition) at 10uM value. Item: CCN(CC)c1ccc(CNc2nc3ccccc3n2C(C)C)cc1
1.88

Supply hERG current change (%, negative = inhibition) at 10uM value. Item: O=C(c1ccc2c(=O)n3c(nc2c1)CCC3)N1CCN(S(=O)(=O)c2cccc(F)c2)CC1
-4.8

Supply hERG current change (%, negative = inhibition) at 10uM value. Item: O=C(Nc1cccc(S(=O)(=O)N2CCCC2)c1)c1ccc2c(=O)n3c(nc2c1)CCCCC3
-57.1

Supply hERG current change (%, negative = inhibition) at 10uM value. Item: COc1ccccc1CNC1CCN(Cc2ccccc2)CC1
-3.89

Supply hERG current change (%, negative = inhibition) at 10uM value. Item: CCN(CC)c1ccc(CNc2nc3ccccc3n2CCN2CCOCC2)cc1
-79.5

Supply hERG current change (%, negative = inhibition) at 10uM value. Item: O=C(Nc1ccc(S(=O)(=O)N2CCCC2)cc1)c1ccc2c(=O)n3c(nc2c1)CCCCC3
9.23

Supply hERG current change (%, negative = inhibition) at 10uM value. Item: CCN(CC)c1ccc(CNc2nc3ccccc3n2C)cc1
-49.7

Supply hERG current change (%, negative = inhibition) at 10uM value. Item: CCOc1cc(N2CCOCC2)c(OCC)cc1NC(=O)CCS(=O)(=O)c1ccc(Cl)cc1
-35.5

====

- Study system: human ether-à-go-go-related gene (hERG) potassium channel (human, UniProt Q12809);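 further: peak tail current of the secondary pulse compared with the same well before compound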
- Assay text: primary screen, population patch clamp on CHO cells stably expressing hERG; higher = less effect of the substance
The campaign covered roughly 310,000 compounds. About 14,000 (4.5%) showed an effect of 50% or more. The effect is printed as a negative number. The sample holds strong results, similar compounds and a random draw of the others, so the mix is not that of the screen.
hERG current change (%, negative = inhibition) at 10uM overview
// return numeric value only (unit: %, not printed)

Use the examples below as a reference point.
>  <Molecule>
COc1ccc(/C=C/C(=O)N/C(=C\c2ccco2)C(=O)NCCc2nc3ccccc3[nH]2)cc1

>  <Study system>
human ether-à-go-go-related gene (hERG) potassium channel (human, UniProt Q12809);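 further: peak tail current of the secondary pulse compared with the same well before compound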

>  <Value reported>
-72.7

$$$$
>  <Molecule>
O=C(/C=C/c1ccco1)N/C(=C\c1ccccc1)C(=O)NCCc1nc2ccccc2[nH]1

>  <Study system>
human ether-à-go-go-related gene (hERG) potassium channel (human, UniProt Q12809);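 further: peak tail current of the secondary pulse compared with the same well before compound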

>  <Value reported>
-46.3

$$$$
>  <Molecule>
CC(C)Oc1ccc(/C=C(\NC(=O)/C=C/c2ccco2)C(=O)NCCc2nc3ccccc3[nH]2)cc1

>  <Study system>
human ether-à-go-go-related gene (hERG) potassium channel (human, UniProt Q12809);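 further: peak tail current of the secondary pulse compared with the same well before compound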

>  <Value reported>
-28.6

$$$$

Supply hERG current change (%, negative = inhibition) at 10uM value. Item: CCCc1[nH]nc2c1C(c1ccc(OC)c(Cn3nnc4ccccc43)c1)C(C#N)=C(N)O2 (stereo not shown)
-29.1
